System: Caco-2 homogenates
Experiment: Synthetic peptide ELISA-based binding to Caco-2 homogenates (streptavidin-peroxidase detection)
Set-up: species or system human
Conditions: Tables 9 and 10
PROPERTY_MEASURED: Binding Assay results (Caco-2), category

For orientation, consider the following solved cases.
INSERT INTO measurements (query_sequence, target_desc, data_value) VALUES
  ('LETTSASLSYPS (polypeptide ligand) [SEQ ID NO:34]', 'Caco-2 homogenates', 'No binding'),
  ('LETTAASLCYPS [SEQ ID NO:31]', 'Caco-2 homogenates', 'Medium binder'),
  ('VPPHPMTYSSQY (polypeptide ligand) [SEQ ID NO:39]', 'Caco-2 homogenates', 'No binding'),
  ('VPPHPMTYSCQY [25 biotinylated derivative]', 'Caco-2 homogenates', 'High binder'),
  ('LETTCASLCYPS (polypeptide ligand) [SEQ ID NO:8]', 'Caco-2 homogenates', 'Medium binder');

Provide one value: measured Binding Assay results (Caco-2), category of LETTCASLAYPS [SEQ ID NO:32]
Medium binder

Fill in Binding Assay results (Caco-2), category for record VPPHPMTYSAQY (polypeptide ligand) [SEQ ID NO:38]
No binding

Item LETTCASLCYPS [8 dansyl-lysine derivative] : provide Binding Assay results (Caco-2), category
High binder

Supply recorded Binding Assay results (Caco-2), category for LETTAASLAYPS (polypeptide ligand) [SEQ ID NO:33] here.
No binding

Please look at this sequence and report its Binding Assay results (Caco-2), category: LETTCASLCYPS [8 biotinylated derivative]
Medium binder

###

System: Caco-2 homogenates
Test: Synthetic peptide ELISA-based binding to Caco-2 homogenates (streptavidin-peroxidase detection)
Parameters: species or system human
Conditions: ELISA; intestinal epithelial tissue, FIGS. 17A-17B Caco-2 homogenates
PROPERTY_MEASURED: binder category / binding to epithelium

INSERT INTO results (query_sequence, data_value) VALUES
  ('VCSNMYFSCRLS (polypeptide ligand) [SEQ ID NO:24]', 'medium binder'),
  ('LETTCASLCYPS (polypeptide ligand) [SEQ ID NO:8]', 'medium binder');

###

Target: Caco-2 homogenates
Experiment: Synthetic peptide ELISA-based binding to Caco-2 homogenates (streptavidin-peroxidase detection)
Set-up: species or system human
Conditions: Tables 9 and 10
PROPERTY_MEASURED: Binding Assay results (Caco-2), Kd

INSERT INTO measurements (query_sequence, property_measured, data_value) VALUES
  ('LETTCASLCYPS [8 biotinylated derivative]', 'Binding Assay results (Caco-2), Kd', '(Kd˜8 μg/ml)'),
  ('LETTCASLAYPS [SEQ ID NO:32]', 'Binding Assay results (Caco-2), Kd', '(Kd˜8 μg/ml)');
